Hello, the source for this data is patent US20260184710A1, in case you need it.

- tested_target: Cbl-b (Homo sapiens)
- Construct: Cbl-b-HiBit KI Jurkat Cells were purchased from Promega; host or cells: Cbl-b-HiBiT knock-in Jurkat cells
- Sequence (Q13191 whole entry): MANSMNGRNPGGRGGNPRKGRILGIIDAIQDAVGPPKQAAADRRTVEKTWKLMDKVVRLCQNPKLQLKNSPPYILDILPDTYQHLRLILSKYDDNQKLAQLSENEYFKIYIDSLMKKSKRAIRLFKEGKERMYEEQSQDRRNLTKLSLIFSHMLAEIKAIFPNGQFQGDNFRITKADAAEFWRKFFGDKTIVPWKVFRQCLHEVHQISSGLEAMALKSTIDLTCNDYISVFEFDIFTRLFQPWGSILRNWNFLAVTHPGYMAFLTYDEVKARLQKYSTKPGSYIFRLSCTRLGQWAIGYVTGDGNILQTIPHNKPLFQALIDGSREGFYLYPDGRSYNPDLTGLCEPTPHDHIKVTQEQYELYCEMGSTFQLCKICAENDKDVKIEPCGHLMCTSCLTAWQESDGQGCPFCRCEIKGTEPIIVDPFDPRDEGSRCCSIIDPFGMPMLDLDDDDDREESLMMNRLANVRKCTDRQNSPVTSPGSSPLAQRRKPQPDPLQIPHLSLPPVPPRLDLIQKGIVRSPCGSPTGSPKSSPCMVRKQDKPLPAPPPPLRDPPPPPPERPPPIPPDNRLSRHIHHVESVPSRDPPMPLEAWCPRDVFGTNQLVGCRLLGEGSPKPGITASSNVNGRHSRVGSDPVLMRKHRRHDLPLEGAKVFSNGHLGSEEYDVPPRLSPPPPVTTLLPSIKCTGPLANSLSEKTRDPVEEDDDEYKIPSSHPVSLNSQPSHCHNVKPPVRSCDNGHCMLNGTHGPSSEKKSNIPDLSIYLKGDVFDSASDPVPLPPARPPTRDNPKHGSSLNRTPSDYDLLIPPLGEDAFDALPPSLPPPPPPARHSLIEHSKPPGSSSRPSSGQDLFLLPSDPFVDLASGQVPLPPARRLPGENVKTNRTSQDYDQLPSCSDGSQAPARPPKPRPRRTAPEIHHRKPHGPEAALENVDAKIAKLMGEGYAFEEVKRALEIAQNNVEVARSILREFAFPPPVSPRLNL
- test_details: Cbl-b Degradation Method B (Nano-Glo HiBiT lytic detection)
- Format: cell-based
- test_conditions: Cbl-b-HiBit KI Jurkat Cells, incubated at least 6-24 hours; half maximal degradation; read-out: Cbl-b Degredation Method B IC50
Can you tell me DC50 for the items I'm about to list?

Incoming: For the molecule CC1CN(C[C@H]2CC[C@H](OC3CCN(c4ccc5c(n4)C(C)N(C4CCC(=O)NC4=O)C5=O)CC3)CC2)CCN1Cc1cc2c(c(C(F)(F)F)c1)CN(c1cccc(C3(Cc4nncn4C)CC3)c1)C2=O (some centres unmarked) , give its reported DC50.
Outgoing: < 5 nM

Incoming: Give recorded DC50. Cc1cc(N2CCC(O[C@H]3CC[C@H](CN4CCN(Cc5cc6c(c(C(F)(F)F)c5)CN(c5cccc(C7(Cc8nncn8C)CC7)c5)C6=O)C(C)(C)C4)CC3)CC2)c(F)c2c1C(=O)N(C1CCC(=O)NC1=O)C2 (some centres unmarked)
Outgoing: < 5 nM

Incoming: Check the records and state DC50 for Cc1cc(N2CCC(CN3CCC4(CCN(c5cc6c(c(C(F)(F)F)c5)CN(c5cccc([C@]7(Cc8nncn8C)C[C@@H](C#N)C7)c5)C6=O)C4)C3)CC2)c(F)c2c1C(=O)N(C1CCC(=O)NC1=O)C2 (some centres unmarked)
Outgoing: < 5 nM

Incoming: Could you please provide reported DC50 for Cn1cnnc1CC1(c2cccc(N3Cc4c(cc(CN5CCN(CCN(C)[C@H]6C[C@H](Oc7ccc8c(c7)C(=O)N(C7CCC(=O)NC7=O)C8=O)C6)CC5)cc4C(F)(F)F)C3=O)c2)COC1 (some centres unmarked) ? Thanks!
Outgoing: > 500 nM

Incoming: Give a short answer stating reported DC50 for Cn1cnnc1CC1(c2cccc(N3Cc4c(cc(CN5CCN(c6cc(N7CCN(c8ccc9c(c8)C(=O)N(C8CCC(=O)NC8=O)C9=O)CC7)ncn6)CC5)cc4C(F)(F)F)C3=O)c2)COC1 (centres unmarked) .
Outgoing: > 500 nM

----------
- tested_target: Cbl-b (Homo sapiens)
- Construct: Cbl-b-HiBit KI Jurkat Cells were purchased from Promega; host or cells: Cbl-b-HiBiT knock-in Jurkat cells
- test_details: Cbl-b Degradation Method A (FACS, anti-Cbl-b antibody staining)
- Assay type: cell-based
- test_conditions: Cbl-b-HiBit KI Jurkat Cells, incubated at least 20 hours; half maximal degradation; read-out: Cbl-b Degredation Method A IC50
Provide the reported DC50 of each item.

Incoming: Report DC50 from Cbl-b (Homo sapiens) testing of Cn1cnnc1CC1(c2cccc(N3Cc4c(cc(CN5CC6(CCN(C[C@H]7CC[C@H](OC8CCN(c9ccc%10c(c9F)CN(C9CCC(=O)NC9=O)C%10=O)CC8)CC7)CC6)C5)cc4C(F)(F)F)C3=O)c2)COC1 (some centres unmarked)
Outgoing: < 5 nM

Incoming: Give reported DC50 for C[C@@H]1c2nc(N3CCC(O[C@H]4CC[C@H](CN5CCN(Cc6cc7c(c(C(F)(F)F)c6)CN(c6cccc(C8(Cc9nncn9C)CC(C#N)C8)c6)C7=O)CC5(C)C)CC4)CC3)ccc2C(=O)N1C1CCC(=O)NC1=O (single isomer, unassigned) (Cbl-b (Homo sapiens))
Outgoing: 50 to 500 nM

Incoming: Report DC50 on Cbl-b (Homo sapiens) for this entry: Cn1cnnc1CC1(c2cccc(N3Cc4c(cc(N5CC6(CCN(c7cc8c(cc7F)C(=O)N(C7CCC(=O)NC7=O)C8=O)CC6)C5)cc4C(F)(F)F)C3=O)c2)COC1 (centres unmarked)
Outgoing: > 500 nM

Incoming: Lab note: record DC50 of Cn1cnnc1CC1(c2cccc(N3Cc4c(cc(CN5CCC(N6CC7(CN(c8ccc9c(c8)C(=O)N(C8CCC(=O)NC8=O)C9=O)C7)C6)CC5)cc4C(F)(F)F)C3=O)c2)COC1 (centres unmarked) tested on Cbl-b (Homo sapiens).
Outgoing: 50 to 500 nM

Incoming: Answer briefly: DC50 recorded on Cbl-b (Homo sapiens) for Cn1cnnc1CC1(c2cccc(N3Cc4c(cc(N5CC(C6CCN(c7ccc8c(c7)C(=O)N(C7CCC(=O)NC7=O)C8=O)CC6)C5)cc4C(F)(F)F)C3=O)c2)COC1 (centres unmarked)
Outgoing: 50 to 500 nM
